Parameter IC50: see the listing below.
Test system: HCT116 colon cancer cells
procedure.summary: MTT proliferation assay, HCT116
Format: cell-based
applied.conditions: 48 hours
property.name: IC50 (nM)

INSERT INTO results (smiles_repr, tested_on, property_name, result) VALUES
  ('CCCC(=O)Oc1cc(O)ccc1NC(=O)/C=C(C)/C=C/C=C(C)/C=C/C1=C(C)CCCC1(C)C', 'HCT116 colon cancer cells', 'IC50', 3000),
  ('CCCC(=O)Nc1cc(NC(=O)/C=C(C)/C=C/C=C(C)/C=C/C2=C(C)CCCC2(C)C)ccc1O', 'HCT116 colon cancer cells', 'IC50', 1400);

###

Tested on: ZR75-1 breast cancer cells
procedure.summary: MTT proliferation assay, ZR75-1
Type: cell-based
applied.conditions: 48 hours
property.name: IC50 (µM)

INSERT INTO measurements (smiles_repr, result) VALUES
  ('CCCC(=O)Nc1cc(NC(=O)/C=C(C)/C=C/C=C(C)/C=C/C2=C(C)CCCC2(C)C)ccc1O', 4.1),
  ('CC1=C(/C=C/C(C)=C/C=C/C(C)=C/C(=O)Nc2ccc(O)cc2)C(C)(C)CCC1', 15),
  ('CCCC(=O)Oc1cc(O)ccc1NC(=O)/C=C(C)/C=C/C=C(C)/C=C/C1=C(C)CCCC1(C)C', 2);
